Reference source: patent US20240270828A1

I'd appreciate it if you could supply Binding AUC values for the items below.
- System Name: SARS-CoV-2 S1+S2 (40589-V08B1, Sino Biological) (SARS-CoV-2, UniProt P0DTC2 16-1213)
- Method Notes: ELISA on coated protein, anti-human IgG-HRP; AUC of the OD

Worked cases, answers included:
Dear colleague, I am looking for the recorded Binding AUC of the following binder: 1242D11 (antibody, V domains shown) VH: QVQLVQSGGGLVQPGGSLRLSCAVSGFTFSSYWMSWVRQAPGKGLEWVANIKQDGSEKYYVDSVKGRFTISRDNAKNSLFLQMNSLRAEDTAVYYCAREAVGYYYDSRGYHYSWYFDLWGRGTLVTVSS VL: EIVLTQSPGTLSLSPGERATLSCRASQSVSSSYLVWYQQKPGQAPRLLIFGASSRATGIPDRFSGSGSGTDFTLTISSLEPEDFAVYYCQHYGSSPPMYTFGQGTKLEIK
21.4

Dear colleague, I am looking for the recorded Binding AUC of the following binder: 1242G6 (antibody, V domains shown, Recombinant human IgG1) VH: QVQLVQSGGGVVQPGTSVRLSCAASGFTFSDHGMHWVRQAPGKGLEWVAVISFEGRNKFFADSVKGRSTISRDNSKNTVSMQVDNVRPEDTAVYYCAREHFDGSGSDYIGTRFFDYWGRGALVTVSS VL: DIQLTQSPSFLSASVGDRVTITCRASQGISHYLTWYQQKPGKAPKLLIYRTSTLQSGVPSRFSGSGSGTVFTLTISSLQPEDLATYYCQHLDNFPTITFGQGTRLDLK
24.3

Below: the item to evaluate.
Dear colleague, I am looking for the recorded Binding AUC of the following binder: 1246C2 (antibody, V domains shown) VH: QVQLVQSGGGLVKPGGSLRLSCAASGFTFKTHNMIWVRQAPGKVLEWVSSISGSSSYRYYGDSMKGRLTISRDNAKNSLYLEMNSLRAEDTAVYYCARDKGVGPTMVWYFDLWGRGTLVTVSS VL: EIVLTQSPATLSLSPGDRATLSCRASQSLSISLAWYQQKPGQAPRLLIYDASIRATGVPPRFSGSGSGTDFTLTISSLEPEDFAVYYCQQWSGWPPRLTFGGGTKVEIK
18
